Target: USP21 (Homo sapiens)
Construct: made in house; host or cells: E. coli BL21(DE3)
Experiment: SPR binding
Conditions: single-cycle kinetics, 15 °C
Measurement Label: pKd
Here pKd is given on a logarithmic scale as minus log10 of the concentration in mol/L.

Form field: reported pKd of N#Cc1ccc(Cc2nnc(NC(=O)[C@@H](CO)NC(=O)C3(C(F)(F)F)CCCCC3)s2)cc1
8.24

----------
Measurement Label: IC50

Provide value of IC50 for this record tested with UniProt:O75604: COCC(NC(=O)c1ccccc1)C(=O)Nc1nnc(Cc2ccc([N+](=O)[O-])cc2)s1 (stereo not drawn)
Sequence (O75604 259-605): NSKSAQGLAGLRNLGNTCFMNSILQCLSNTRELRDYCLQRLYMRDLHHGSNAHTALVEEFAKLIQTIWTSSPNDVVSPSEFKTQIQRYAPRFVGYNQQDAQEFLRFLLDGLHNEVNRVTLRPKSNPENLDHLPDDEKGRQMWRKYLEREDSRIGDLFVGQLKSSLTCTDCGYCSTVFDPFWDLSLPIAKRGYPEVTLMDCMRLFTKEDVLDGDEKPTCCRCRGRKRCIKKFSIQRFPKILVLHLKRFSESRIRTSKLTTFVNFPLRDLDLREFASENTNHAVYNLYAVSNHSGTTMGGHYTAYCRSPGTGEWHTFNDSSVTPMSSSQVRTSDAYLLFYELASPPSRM
> 25 µM

Reported IC50 for UniProt:O75604, given CC(C)C(NC(=O)C1CCCC1)C(=O)Nc1nnc(Cc2ccc([N+](=O)[O-])cc2)s1 (stereo not drawn) ?
> 25 µM

Give UniProt:O75604 IC50 for O=C(CNC(=O)C1CCCC1)Nc1nnc(Cc2ccc([N+](=O)[O-])cc2)s1
> 25 µM

----------
Molecular target: USP21 (Homo sapiens, UniProt Q9UK80)
Experiment: biochemical
Sequence (Q9UK80 whole entry): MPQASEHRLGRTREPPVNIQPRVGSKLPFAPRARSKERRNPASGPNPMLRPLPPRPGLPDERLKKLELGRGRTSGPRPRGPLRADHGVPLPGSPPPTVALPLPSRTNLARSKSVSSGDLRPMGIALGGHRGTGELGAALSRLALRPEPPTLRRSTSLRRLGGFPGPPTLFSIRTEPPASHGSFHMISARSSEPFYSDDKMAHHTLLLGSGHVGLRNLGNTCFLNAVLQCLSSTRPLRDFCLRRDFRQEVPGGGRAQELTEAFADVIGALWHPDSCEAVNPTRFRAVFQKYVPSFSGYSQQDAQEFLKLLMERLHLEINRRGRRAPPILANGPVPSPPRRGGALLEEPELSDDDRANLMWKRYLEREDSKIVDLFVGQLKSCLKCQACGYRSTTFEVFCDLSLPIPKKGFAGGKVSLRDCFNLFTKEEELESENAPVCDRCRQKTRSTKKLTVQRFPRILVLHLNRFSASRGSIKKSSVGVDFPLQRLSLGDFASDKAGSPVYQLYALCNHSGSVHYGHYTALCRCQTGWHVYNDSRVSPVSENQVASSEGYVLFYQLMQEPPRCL
Measurement Label: pIC50
As a rule, pIC50 stands for the negative log10 of the concentration, concentration in M.

Any idea what its pIC50 is? The molecule is N#Cc1ccc(Cc2nnc(NC(=O)[C@H](NC(=O)C3(C(F)(F)F)CCCCC3)C3CCCC3)s2)cc1
7.89

----------
Assay: in vitro
Type: in vitro ADME
Conditions: human, Caco-2, pH 7.2; 2 μM, 2 h
For each of the compounds below, state its Papp A→B at 2 h, 2 µM.

Returns the measured Papp A→B at 2 h, 2 µM for the input compound. Input: COC[C@@H](NC(=O)C1(C(F)(F)F)CCCCC1)C(=O)Nc1nnc(Cc2ccc(C#N)cc2)s1 [Compound 17]
8.2 ×10⁻⁶ cm/s

Entry N#Cc1ccc(Cc2nnc(NC(=O)[C@H](NC(=O)C3(C(F)(F)F)CCCCC3)C3CCCC3)s2)cc1 [Compound 20] has what Papp A→B at 2 h, 2 µM?
3.4 ×10⁻⁶ cm/s

For N#Cc1ccc(Cc2nnc(NC(=O)[C@@H](CO)NC(=O)C3(C(F)(F)F)CCCCC3)s2)cc1 [Compound 18] , what is its reported Papp A→B at 2 h, 2 µM?
1.4 ×10⁻⁶ cm/s

----------
Measurement Label: IC50 (µM)
Express your answer in µM, writing the number without its unit.

Request - read-out IC50 | tested on Cholinesterase, Acetyl, ACES (Homo sapiens) | compound CC(C)C[C@@H](NC(=O)C1(C(F)(F)F)CCCCC1)C(=O)Nc1nnc(Cc2ccc(C#N)cc2)s1
7.61

----------
pIC50: −log10 of the molar value.
Measurement Label: pIC50

What measured pIC50 is associated with COCC(NC(=O)c1ccccc1)C(=O)Nc1nnc(Cc2ccc([N+](=O)[O-])cc2)s1 (stereo not shown) [Compound 5] on USP21 (Homo sapiens, UniProt Q9UK80)?
< 4.70

What pIC50 appears in the records for this molecule with USP21 (Homo sapiens, UniProt Q9UK80)? COCC(NC(=O)C1CCOCC1)C(=O)Nc1nnc(Cc2ccc([N+](=O)[O-])cc2)s1 (stereo not shown) [Compound 8]
< 4.60

What value of pIC50 on USP21 (Homo sapiens, UniProt Q9UK80) does O=C(CNC(=O)C1CCCC1)Nc1nnc(Cc2ccc([N+](=O)[O-])cc2)s1 [Compound 2] have?
< 4.60

Give the reported pIC50 for COC[C@@H](NC(=O)C1(OC)CCCCC1)C(=O)Nc1nnc(Cc2ccc(C#N)cc2)s1 [Compound 15] (system: USP21 (Homo sapiens, UniProt Q9UK80)).
< 4.60
